system: Aspergillus fumigatus; test: In vitro minimum inhibitory concentration which is the lowest concentration at which no signs of fungal growth were detected against Aspergillus fumigatus.
measurement_kind: MIC (µg/mL)

{"mol": "CN(C/C=C/C#CC(C)(C)C)Cc1cccc2c(Br)csc12.Cl", "endpoint_value": 0.8}
{"mol": "CN(C/C=C/C#CC(C)(C)C)Cc1cccc2ccccc12", "endpoint_value": 0.4}
{"mol": "CN(C/C=C/C#CC(C)(C)C)Cc1cccc2c(C#N)csc12.Cl", "endpoint_value": 3.13}
{"mol": "CN(C/C=C/C#CC(C)(C)C)Cc1cccc2c(C=O)csc12", "endpoint_value": 0.4}

* * *

system: Microsporum canis; test: Evaluated in vitro for the minimum inhibitory concentration against Microsporum canis.; assay type: functional
Reported MIC by item:

{"mol": "CN(C/C=C/C#CC(C)(C)C)Cc1cccc2c(F)csc12.Cl", "unit_abbrev": "µg/mL", "lt_gt_eq": "=", "MIC": 0.0015}
{"mol": "CN(C/C=C/C#CC(C)(C)C)Cc1cccc2ccsc12.Cl", "unit_abbrev": "µg/mL", "lt_gt_eq": "=", "MIC": 0.01}
{"mol": "CN(C/C=C/C#CC(C)(C)C)Cc1cccc2scc(Cl)c12.Cl", "unit_abbrev": "µg/mL", "lt_gt_eq": "=", "MIC": 0.1}
{"mol": "Cc1csc2c(CN(C)C/C=C/C#CC(C)(C)C)cccc12.Cl", "unit_abbrev": "µg/mL", "lt_gt_eq": "=", "MIC": 0.006}
{"mol": "CN(C/C=C/C#CC(C)(C)C)Cc1cccc2cc(Cl)sc12.Cl", "unit_abbrev": "µg/mL", "lt_gt_eq": "=", "MIC": 0.01}
{"mol": "CN(C/C=C/C#CC(C)(C)C)Cc1cccc2sccc12.Cl", "unit_abbrev": "µg/mL", "lt_gt_eq": "=", "MIC": 0.01}
{"mol": "CN(C/C=C/C#CC(C)(C)C)Cc1cc(Cl)cc2ccsc12.Cl", "unit_abbrev": "µg/mL", "lt_gt_eq": "=", "MIC": 0.1}
{"mol": "CN(C/C=C/C#CC(C)(C)C)Cc1c(Cl)sc2ccccc12", "unit_abbrev": "µg/mL", "lt_gt_eq": "=", "MIC": 0.1}
{"mol": "CN(C/C=C/C#CC(C)(C)C)Cc1csc2c(Cl)cccc12.Cl", "unit_abbrev": "µg/mL", "lt_gt_eq": "=", "MIC": 0.05}
{"mol": "CSc1csc2c(CN(C)C/C=C/C#CC(C)(C)C)cccc12.Cl", "unit_abbrev": "µg/mL", "lt_gt_eq": "=", "MIC": 0.1}
{"mol": "CN(C/C=C/C#CC(C)(C)C)Cc1csc2ccc(Cl)cc12", "unit_abbrev": "µg/mL", "lt_gt_eq": "=", "MIC": 0.006}
{"mol": "CN(C/C=C/C#CC(C)(C)C)Cc1csc2ccccc12.Cl", "unit_abbrev": "µg/mL", "lt_gt_eq": "=", "MIC": 0.02}
{"mol": "CN(C/C=C/C#CC(C)(C)C)Cc1cccc2cc(F)sc12.Cl", "unit_abbrev": "µg/mL", "lt_gt_eq": "=", "MIC": 0.01}
{"mol": "CN(C/C=C/C#CC(C)(C)C)Cc1cccc2c(C(F)(F)F)csc12.Cl", "unit_abbrev": "µg/mL", "lt_gt_eq": "=", "MIC": 0.1}
{"mol": "CN(C/C=C/C#CC(C)(C)C)Cc1cccc2sc(Cl)cc12.Cl", "unit_abbrev": "µg/mL", "lt_gt_eq": "=", "MIC": 0.006}
{"mol": "CN(C/C=C/C#CC(C)(C)C)Cc1cccc2c(Cl)csc12.Cl", "unit_abbrev": "µg/mL", "lt_gt_eq": "=", "MIC": 0.003}
{"mol": "CN(C/C=C/C#CC(C)(C)C)Cc1ccc2sccc2c1", "unit_abbrev": "µg/mL", "lt_gt_eq": "=", "MIC": 1.56}
{"mol": "CN(C/C=C/C#CC(C)(C)C)Cc1cc2ccccc2s1", "unit_abbrev": "µg/mL", "lt_gt_eq": ">", "MIC": 100}
{"mol": "CN(C/C=C/C#CC(C)(C)C)Cc1ccc(Cl)c2ccsc12.Cl", "unit_abbrev": "µg/mL", "lt_gt_eq": "=", "MIC": 0.4}
